target: Sialic acid-binding Ig-like lectin 9 (Homo sapiens); test: Hs-Siglec9 ALPHAscreen SOP 20170721; set-up: scale not given: direction of the effect not stated beside the values; conditions: 10 µM
valueType: Percent Effect
Write down the value, and be sure its unit follows.

COCC1c2nnn(CC3CC3)c2CCN1C(=O)c1ccnnc1 (stereo not drawn) | 32.8%

Please give Percent Effect for each item listed below.
1. Cc1nccc(-c2cccc(NCC(=O)N3CCCCCCC3)c2)n1
2. Fc1ccc(-c2n[nH]cc2-c2ccnc(NCCN3CCCC3)n2)cc1
3. Cc1ccc(-c2nc(CN3CCCC3Cn3cc(C)cn3)no2)cc1 (stereo not drawn)
4. O=C(Nc1ccc(N2CCCC2)nc1)N1CCc2sccc2C1
5. O=C(c1cccnc1)N1C[C@@H]2CC[C@H](C1)N(Cc1cc(F)ccc1F)C2
6. CCCn1nccc1C(=O)N1CCCN(CCCc2ccccc2)CC1
7. Cc1cnn(CCNCc2nc(Cc3ccccc3)no2)c1

1: -8.15%; 2: -4.6%; 3: 2.03%; 4: 0.939%; 5: -0.061%; 6: 8.5%; 7: -0.739%

# batch size: 5; output Percent Effect per entry
1. O=C(COCc1nc(-c2ccncc2)no1)N1CCCCCC1
2. CNc1cc2c(nn1)CCN(C(=O)c1ccoc1)C2
3. Cc1cnn(C2CCCN(C(=O)c3cn4cccnc4n3)C2)c1 (stereo not drawn)
4. Cn1cnnc1S(=O)(=O)C1CCN(S(=O)(=O)C2CC2)CC1
5. CSc1ccc(-c2nc(CN3CCC(NC(C)=O)C3)c(C)o2)cc1 (stereo not drawn)

["21.3%", "-6.29%", "17.1%", "1.56%", "-0.709%"]

Here are 5 molecules. What values of Percent Effect were reported for them?
1. CC(C)c1cc(C(F)(F)F)n2nc(CCC(=O)O)nc2n1
2. CCn1c(C)cc(C(=O)N2CCCC(n3nc(C)nc3C)C2)c1C (stereo not drawn)
3. Cc1ccccc1CSc1nc(N)cc(N2CCOC(C(N)=O)C2)n1 (stereo not drawn)
4. CN1CCN(C(=O)c2ccc(=O)n(C)c2)c2ccccc21
5. COCCCN(C)Cc1nc2c(cnn2C)c(=O)[nH]1

["-8.51%", "-10.5%", "-7.55%", "20.6%", "-2.13%"]
